Would you mind telling me the reported pEC50 of each entry?
- TARGET OR TEST SYSTEM: T1, Full-length cynomolgus monkey TIGIT on CHO-K1 cells (CHO-K1 cynomolgus monkey TIGIT) (cynomolgus monkey)
- T1 construct: NCBI XP_015300911.1
- T1 sequence (chain, as listed by the source limits assumed): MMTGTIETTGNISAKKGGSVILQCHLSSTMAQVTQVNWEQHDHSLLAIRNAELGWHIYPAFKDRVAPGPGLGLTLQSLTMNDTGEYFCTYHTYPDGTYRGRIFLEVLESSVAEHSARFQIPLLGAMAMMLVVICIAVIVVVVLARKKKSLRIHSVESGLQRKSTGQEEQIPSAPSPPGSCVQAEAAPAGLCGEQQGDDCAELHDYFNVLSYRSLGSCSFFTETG
- TEST: cell binding, CHO-K1 cynomolgus monkey TIGIT
Give bare numbers, as −log10 of the molar value.

The examples below pair each entry with its known result.
>>> value_observed("TIGIT-002-H2L3 (antibody, V domains shown, Humanized anti-TIGIT antibody) VH: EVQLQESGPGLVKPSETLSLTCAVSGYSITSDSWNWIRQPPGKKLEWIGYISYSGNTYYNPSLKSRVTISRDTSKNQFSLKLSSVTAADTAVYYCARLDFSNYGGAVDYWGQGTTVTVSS VL: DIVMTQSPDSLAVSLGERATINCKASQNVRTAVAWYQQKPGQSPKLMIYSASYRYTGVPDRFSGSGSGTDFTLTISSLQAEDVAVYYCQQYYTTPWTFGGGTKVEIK")
9.82
>>> value_observed("TIGIT-005-H2L1b (antibody, V domains shown, Humanized anti-TIGIT antibody with NG-site mutation in VL) VH: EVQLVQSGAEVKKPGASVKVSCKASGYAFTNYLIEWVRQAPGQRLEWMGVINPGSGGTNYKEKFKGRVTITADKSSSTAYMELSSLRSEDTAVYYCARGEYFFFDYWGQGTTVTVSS VL: DIVMTQSPDSLAVSLGERATINCKASQHVSTGVAWYQHKPGQSPKLLIYSASYRYTGVPDRFSGSGSGTDFTLTISSLQAEDVAVYYCQQHYNTPHTFGGGTKVEIK")
10.43
>>> value_observed("TIGIT-002-H1L1 (antibody, V domains shown, Humanized anti-TIGIT antibody) VH: EVQLQESGPGLVKPSETLSLTCAVSGYSITSDSWNWIRQPPGKGLEWIGYISYSGNTYYNPSLKSRVTISRDTSKNQFSLKLSSVTAADTAVYYCARLDFSNYGGAVDYWGQGTTVTVSS VL: DIVMTQTPLSLSVTPGQPASISCKASQNVRTAVAWYLQKPGQSPQLMIYSASYRYTGVPDRFSGSGSGTDFTLKISRVEAEDVGVYYCQQYYTTPWTFGGGTKVEIK")
9.73
>>> value_observed("TIGIT-002-H4L2 (antibody, V domains shown, Humanized anti-TIGIT antibody) VH: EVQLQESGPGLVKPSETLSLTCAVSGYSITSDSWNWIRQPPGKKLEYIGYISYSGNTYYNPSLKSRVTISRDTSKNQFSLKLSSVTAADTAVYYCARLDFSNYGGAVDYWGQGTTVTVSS VL: DIVMTQTPLSLSVTPGQPASISCKASQNVRTAVAWYQQKPGQSPQLMIYSASYRYTGVPDRFSGSGSGTDFTLKISRVEAEDVGVYYCQQYYTTPWTFGGGTKVEIK")
10.32
>>> value_observed("TIGIT-002-H4L3 (antibody, V domains shown, Humanized anti-TIGIT antibody) VH: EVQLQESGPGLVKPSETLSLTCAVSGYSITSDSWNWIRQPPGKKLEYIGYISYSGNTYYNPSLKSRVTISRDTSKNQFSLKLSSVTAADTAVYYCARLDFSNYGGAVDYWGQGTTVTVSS VL: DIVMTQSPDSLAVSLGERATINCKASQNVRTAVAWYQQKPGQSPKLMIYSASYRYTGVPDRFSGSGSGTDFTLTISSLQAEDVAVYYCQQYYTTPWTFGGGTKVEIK")
10.33
>>> value_observed("TIGIT-070-H2L3 (antibody, V domains shown, Humanized anti-TIGIT antibody) VH: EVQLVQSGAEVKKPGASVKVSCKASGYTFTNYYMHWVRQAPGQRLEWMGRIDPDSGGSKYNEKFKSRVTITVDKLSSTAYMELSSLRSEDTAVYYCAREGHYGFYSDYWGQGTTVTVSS VL: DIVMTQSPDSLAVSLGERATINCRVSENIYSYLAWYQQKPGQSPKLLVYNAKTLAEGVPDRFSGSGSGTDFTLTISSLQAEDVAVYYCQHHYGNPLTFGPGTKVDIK")
10.11

Required: pEC50, one value per binder below.
1. TIGIT-002-H1L2 (antibody, V domains shown, Humanized anti-TIGIT antibody) VH: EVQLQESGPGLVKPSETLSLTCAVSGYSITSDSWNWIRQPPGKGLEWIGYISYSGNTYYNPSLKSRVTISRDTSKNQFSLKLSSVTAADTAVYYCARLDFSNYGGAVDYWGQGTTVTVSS VL: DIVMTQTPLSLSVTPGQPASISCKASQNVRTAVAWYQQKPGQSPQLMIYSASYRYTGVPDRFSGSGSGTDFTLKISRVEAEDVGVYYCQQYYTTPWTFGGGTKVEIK
2. TIGIT-070-H3L2 (antibody, V domains shown, Humanized anti-TIGIT antibody) VH: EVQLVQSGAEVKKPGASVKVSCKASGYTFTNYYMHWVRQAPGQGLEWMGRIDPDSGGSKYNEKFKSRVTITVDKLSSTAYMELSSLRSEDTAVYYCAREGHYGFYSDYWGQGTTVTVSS VL: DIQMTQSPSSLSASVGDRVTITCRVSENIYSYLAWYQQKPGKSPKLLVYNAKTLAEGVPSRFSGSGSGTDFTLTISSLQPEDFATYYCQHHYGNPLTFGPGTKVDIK
3. TIGIT-070-H2L2 (antibody, V domains shown, Humanized anti-TIGIT antibody) VH: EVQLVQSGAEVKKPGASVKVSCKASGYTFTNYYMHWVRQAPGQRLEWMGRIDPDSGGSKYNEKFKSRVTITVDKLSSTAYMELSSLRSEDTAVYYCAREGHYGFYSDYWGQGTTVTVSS VL: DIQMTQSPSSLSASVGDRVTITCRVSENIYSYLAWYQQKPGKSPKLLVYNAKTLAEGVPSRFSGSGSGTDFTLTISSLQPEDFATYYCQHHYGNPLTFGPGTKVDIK
4. TIGIT-005-H2L1c (antibody, V domains shown, Humanized anti-TIGIT antibody with NG-site mutation in VL) VH: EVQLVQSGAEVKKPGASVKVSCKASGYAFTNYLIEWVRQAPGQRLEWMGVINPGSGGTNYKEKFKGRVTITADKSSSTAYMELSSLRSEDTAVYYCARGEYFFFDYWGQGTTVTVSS VL: DIVMTQSPDSLAVSLGERATINCKASQHVSDGVAWYQHKPGQSPKLLIYSASYRYTGVPDRFSGSGSGTDFTLTISSLQAEDVAVYYCQQHYNTPHTFGGGTKVEIK

[reply]
1. 9.66
2. 10.18
3. 10.18
4. 10.17
